- measured.on: EGFR recombinant human protein (human) (UniProt P00533)
- test.summary: SPR; EGFR (20 µg/mL) or BSA (20 µg/mL) covalently attached (EDC/NHS) to a carboxymethylated dextran chip; peptides injected as analytes at 15 µL/min; 25 °C; PBS with 0.01% Tween 20, pH 7.4; global fit, 1:1 Langmuir model with mass transport; KD from koff/kon
pKd: −log10 of the molar value.
measured.metric: pKd

1. WSGENGPGFYDYEA (designed binder) [Pep11]
2. WSGENGPGTFYDYEA (designed binder) [Pep22]
3. WSGENGPGYFDYEA (designed binder) [Pep6]
Could you list the above binders by pKd, going from the biggest number down? Output spec: labels arranged per the requested ranking.
1, 2, 3
